readout.label: melting point

> print(dat)
                                    compound    readout.value
 1  COc1cc(NC(=O)Nc2ccc3c(c2)CCN(C(=O)Nc2ccc(OCC(O)CO)cc2Cl)C3)cc(OC)c1 (stereo not drawn)    108 to 110 °C
 2  COc1ccc(C)cc1NC(=O)Nc1ccc(N2CCN(C(=O)Nc3ccc(NC(C)=O)cc3C(F)(F)F)CC2)cc1    152 to 154 °C
 3  CCOc1ccccc1NC(=O)Nc1ccc(N2CCN(C(=O)Nc3c(Cl)cccc3Cl)CC2)cc1    164 to 166 °C
 4  COc1ccc(C)cc1NC(=O)Nc1ccc(N2CCCN(C(=O)Nc3c(C)cccc3C)CC2)cc1  > 240 °C (dec.)
 5  Cc1cccnc1NC(=O)N1CCN(c2ccc(NC(=O)Nc3ccccc3F)cn2)CC1    213 to 215 °C
 6  CC(C)(C)OC(=O)N1CCN(c2ccc(NC(=O)Nc3cccc(Oc4ccccc4)c3)cc2)CC1           172 °C
 7  COc1ccc(F)cc1NC(=O)Nc1ccc(N2CCN(C(=O)Nc3ccccc3C)CC2)cc1    222 to 224 °C
 8  Cc1cccc(Cl)c1NC(=O)N1CCN(c2ccc(NC(=O)Nc3cc(C(F)(F)F)ccc3Cl)cc2)CC1    249 to 251 °C
 9  COc1ccc(F)cc1NC(=O)Nc1ccc(N2CCN(C(=O)Nc3c(C)cccc3Cl)CC2)nc1    227 to 228 °C
10  COc1ccc(C)cc1NC(=O)Nc1ccc(N2CCN(C(=O)Nc3ccc(OCC(O)CO)cc3C(F)(F)F)CC2)cc1 (stereo not drawn)    187 to 190 °C
11  COc1ccc(C)cc1NC(=O)Nc1ccc(C2CCN(C(=O)Nc3ccc(OCC(O)CO)cc3Cl)CC2)cc1 (stereo not drawn)    179 to 181 °C
12  Cc1nc(NC(=O)Nc2ccc(N3CCN(C(=O)Nc4ccc(OCCO)cc4Cl)CC3)cc2)sc1C    186 to 187 °C
13  COc1ccc(C)cc1NC(=O)Nc1ccc(N2CCN(C(=O)Nc3ccc(Br)cc3C#N)CC2)cc1    149 to 151 °C
14  CCOc1ccc(F)cc1NC(=O)Nc1ccc(N2CCN(C(=O)Nc3ccc(OC)cc3C)CC2)cc1    186 to 189 °C
15  COc1ccc(NC(=O)N2CCN(c3ccc(NC(=O)Nc4cc(C)ccc4OC)cc3)CC2)c(C)c1    193 to 195 °C

====

readout.label: melting point

> print(dat)
                                    molecule  readout.label    readout.value
 1  O=C(Nc1ccc(C2=CCN(C(=O)Nc3ccc(OCCO)cc3Cl)CC2)cc1)Nc1ccccc1F [Example 260]  melting point    173 to 178 °C
 2  COc1ccccc1NC(=O)Nc1ccc2c(c1)CCN(C(=O)Nc1ccc(OCC(O)CO)cc1Cl)C2 (stereo not shown) [Example 284]  melting point    107 to 111 °C
 3  CCOc1cccc(NC(=O)Nc2ccc(N3CCN(C(=O)Nc4ncccc4C)CC3)cc2)c1 [Example 305]  melting point    171 to 173 °C
 4  Cc1cccc(Cl)c1NC(=O)N1CCN(c2ccc(NC(=O)Nc3ccc(N(C)C)cc3)cc2)CC1 [Example 156]  melting point    214 to 217 °C
 5  Cc1ccccc1NC(=O)Nc1ccc(N2CCN(C(=O)Nc3c(C)cccc3Cl)CC2)cc1 [Example 127]  melting point  > 260 °C (dec.)
 6  COc1ccc(NC(=O)N2CCN(c3ccc(NC(=O)Nc4cc(F)ccc4OC)cn3)CC2)c(C)c1 [Example 153]  melting point    212 to 214 °C
 7  COc1ccc(Cl)cc1NC(=O)Nc1ccc(N2CCN(C(=O)Nc3ccccc3C(F)(F)F)CC2)cc1 [Example 68]  melting point    213 to 214 °C
 8  COc1cc(NC(=O)Nc2ccc(C3CCN(C(=O)Nc4ccc(OCCO)cc4Cl)CC3)cc2)cc(OC)c1 [Example 262]  melting point    101 to 105 °C
 9  COc1ccc(C)cc1NC(=O)Nc1ccc(N2CCN(C(=O)Nc3ncccc3C)CC2)c(C)c1 [Example 313]  melting point    144 to 146 °C
10  CCOc1ccc(Cl)cc1NC(=O)Nc1ccc(N2CCN(C(=O)Nc3ccc(OC)cc3C)CC2)cc1 [Example 106]  melting point    210 to 213 °C
11  COc1ccc(C)cc1NC(=O)Nc1ccc(N2CCN(C(=O)OC(C)(C)C)CC2)cc1 [Example 2]  melting point           157 °C
12  CCOP(=O)(Cc1ccc(NC(=O)Nc2ccc(N3CCN(C(=O)Nc4c(C)cccc4Cl)CC3)cc2)cc1)OCC  melting point    218 to 220 °C
13  COc1ccc(C)cc1NC(=O)Nc1ccc(C2CCN(C(=O)Nc3c(C)cccc3Cl)CC2)cc1 [Example 228]  melting point    234 to 236 °C
14  CCOc1cccc(NC(=O)Nc2ccc(C3CCN(C(=O)Nc4ccc(OCCO)cc4Cl)CC3)cc2)c1 [Example 264]  melting point    129 to 134 °C
15  CCOc1ccccc1NC(=O)Nc1ccc(N2CCN(C(=O)Nc3c(Cl)cccc3Cl)CC2)nc1 [Example 144]  melting point    170 to 172 °C
16  CC(C)(C)OC(=O)N1CCN(c2ccc(NC(=O)Nc3ccccc3[N+](=O)[O-])cc2)CC1 [Example 6]  melting point           207 °C
17  COc1ccc(C)cc1NC(=O)Nc1ccc(N2CCN(C(=O)Nc3ncccc3C)CC2)c(F)c1 [Example 312]  melting point    188 to 190 °C
18  O=C(Nc1ccc(N2CCN(C(=O)Nc3ccc(OCCO)cc3C(F)(F)F)CC2)c(Cl)c1)Nc1ccccc1F [Example 221]  melting point    199 to 200 °C
19  O=C(Nc1ccc(N2CCN(C(=O)C(O)c3ccc(O)cc3Cl)CC2)nc1)Nc1ccccc1F (stereo not shown) [Example 379]  melting point    133 to 135 °C
20  CCOc1ccc(C)cc1NC(=O)Nc1ccc(N2CCN(C(=O)Nc3c(C)cccc3C)CC2)cc1 [Example 118]  melting point    222 to 225 °C
21  COc1ccc(C)cc1NC(=O)Nc1ccc(N2CCN(C(=O)Nc3c(C)cccc3C)CC2)cc1 [Example 62]  melting point    212 to 214 °C
22  CCOc1ccccc1NC(=O)Nc1ccc(N2CCN(C(=O)Nc3ccccc3C(F)(F)F)CC2)cc1 [Example 80]  melting point    201 to 203 °C
23  COc1ccc(C)cc1NC(=O)Nc1ccc(N2CCN(C(=O)Nc3ccc(C(C)C)cc3C(F)(F)F)CC2)cc1 [Example 178]  melting point    134 to 135 °C
24  CN(C)c1ccc(NC(=O)Nc2ccc(N3CCN(C(=O)OC(C)(C)C)CC3)cc2)cc1 [Example 20]  melting point           207 °C
25  COc1ccc(C)cc1NC(=O)Nc1ccc(N2CCN(C(=O)Nc3c(F)cccc3F)CC2)cc1 [Example 55]  melting point           224 °C
26  COc1ccc(C)cc1NC(=O)Nc1ccc(N2CCN(C(=O)Nc3ncccc3C)CC2)nc1 [Example 301]  melting point    216 to 218 °C
27  CCOc1ccc(F)cc1NC(=O)Nc1ccc(N2CCN(C(=O)OC(C)(C)C)CC2)nc1 [Example 46]  melting point           180 °C
28  COc1ccc(C)cc1NC(=O)Nc1ccc(N2CCN(C(=O)Nc3ccccc3Cl)CC2)cc1 [Example 56]  melting point  > 240 °C (dec.)
29  CC(C)(C)OC(=O)N1CCN(c2ccc(NC(=O)Nc3cc(Cl)ccc3NS(C)(=O)=O)cc2)CC1 [Example 12]  melting point           127 °C
30  COc1ccc(C)cc1NC(=O)Nc1ccc(N2CCN(C(=O)Nc3ccc(Br)cc3C)CC2)cc1 [Example 70]  melting point    191 to 193 °C
31  COc1ccc(F)cc1NC(=O)Nc1ccc(N2CCN(C(=O)Nc3ncccc3C)CC2)nc1 [Example 298]  melting point    196 to 198 °C

====

Catalogue of compounds with associated melting point
readout.label: melting point

> print(dat)
                                    compound  readout.label    readout.value
 1  CCOc1ccc(F)cc1NC(=O)Nc1ccc(N2CCN(C(=O)OC(C)(C)C)CC2)cc1  melting point    168 to 169 °C
 2  CCOc1ccc(C)cc1NC(=O)Nc1ccc(N2CCN(C(=O)Nc3ccccc3C)CC2)cc1  melting point    190 to 192 °C
 3  COc1ccc(C)cc1NC(=O)Nc1ccc(N2CCN(C(=O)Nc3c(C)cccc3[N+](=O)[O-])CC2)cc1  melting point    213 to 215 °C
 4  COc1ccccc1NC(=O)Nc1ccc(N2CCN(C(=O)Nc3cc(OCCO)ccc3Cl)CC2)nc1  melting point    139 to 141 °C
 5  Cc1cnc(NC(=O)Nc2ccc(N3CCN(C(=O)Nc4ccc(OCCO)cc4C(F)(F)F)CC3)cc2)s1  melting point    118 to 120 °C
 6  CCOc1ccccc1NC(=O)Nc1ccc(N2CCN(C(=O)Nc3ccc(C)cc3Cl)CC2)nc1  melting point    136 to 137 °C
 7  COc1ccc(C)cc1NC(=O)Nc1ccc(N2CCN(C(=O)Nc3ccc(OCCO)cc3C)CC2)cc1  melting point    174 to 176 °C
 8  COc1ccc(C)cc1NC(=O)Nc1ccc(N2CCN(C(=O)Nc3ccc(OCC(O)CO)cc3C)CC2)cc1 (stereo not shown)  melting point    148 to 150 °C
 9  COc1ccc(C)cc1NC(=O)Nc1ccc(N2CCN(C(=O)Nc3ccc(N)cc3C(F)(F)F)CC2)cc1  melting point    244 to 246 °C
10  COc1ccc(C)cc1NC(=O)Nc1ccc(N2CCN(C(=O)Nc3ccc(C)cc3Cl)CC2)cc1  melting point    186 to 187 °C
11  CC(C)(C)OC(=O)N1CCN(c2ccc(NC(=O)Nc3cccc(Cl)c3)cc2)CC1  melting point           163 °C
12  CC(C)(C)OC(=O)N1CCN(c2ccc(NC(=O)Nc3cc(C(F)(F)F)ccc3F)cc2)CC1  melting point           241 °C
13  COc1ccc(F)cc1NC(=O)Nc1ccc(N2CCN(C(=O)Nc3c(Cl)cccc3Cl)CC2)nc1  melting point           228 °C
14  COc1ccc(C)cc1NC(=O)Nc1ccc(N2CCN(C(=O)Nc3ncccc3C)CC2)cc1  melting point    209 to 211 °C
15  Cc1nc(NC(=O)Nc2ccc(N3CCN(C(=O)Nc4ccc(OCCO)cc4C(F)(F)F)CC3)cc2)sc1C  melting point    166 to 167 °C
16  CCOc1ccc(F)cc1NC(=O)Nc1ccc(N2CCN(C(=O)Nc3c(F)cccc3C(F)(F)F)CC2)cc1  melting point    153 to 155 °C
17  O=C(Nc1ccc(N2CCN(C(=O)Nc3ccc(OCCO)cc3C(F)(F)F)CC2)cc1)Nc1ccccc1OC(F)(F)F  melting point    112 to 114 °C
18  COc1ccc(C)cc1NC(=O)Nc1ccc(N2CCN(C(=O)OC(C)(C)C)CC2)c(C)c1  melting point    103 to 105 °C
19  COc1ccc(Cl)cc1NC(=O)Nc1ccc(N2CCN(C(=O)Nc3ccccc3F)CC2)cc1  melting point    218 to 220 °C
20  COc1cccc(NC(=O)Nc2ccc(N3CCN(C(=O)Nc4ncccc4C)CC3)cc2)c1  melting point    191 to 193 °C
21  COc1ccc(C)cc1NC(=O)Nc1ccc(N2CCN(C(=O)Nc3ccc(Cl)cc3C(F)(F)F)CC2)cc1  melting point    186 to 187 °C
22  COc1ccc(C)cc1NC(=O)Nc1ccc(N2CCN(C(=O)Nc3c(C)cccc3C(=O)O)CC2)cc1  melting point    159 to 160 °C
23  COc1ccc(C)cc1NC(=O)Nc1ccc(N2CCN(C(=O)Nc3c(Cl)cccc3C(F)(F)F)CC2)cc1  melting point    196 to 197 °C
24  COc1ccc(C)cc1NC(=O)Nc1ccc(N2CCN(C(=O)Nc3c(C)cccc3Cl)CC2)cc1  melting point    143 to 145 °C
25  COc1cc(NC(=O)Nc2ccc(C3CCN(C(=O)Nc4ccc(OCC(O)CO)cc4Cl)CC3)cc2)cc(OC)c1 (stereo not shown)  melting point    105 to 108 °C
26  COc1ccc(C)cc1NC(=O)Nc1ccc(N2CCN(C(=O)Nc3ccccc3F)CC2)cc1  melting point    200 to 201 °C
27  Cc1nc(NC(=O)Nc2ccc(N3CCN(C(=O)Nc4ccc(OCCO)cc4Cl)CC3)nc2)sc1C  melting point    184 to 185 °C
28  COc1ccc(Cl)cc1NC(=O)Nc1ccc(N2CCN(C(=O)Nc3c(C)cccc3Cl)CC2)cc1  melting point    225 to 227 °C
29  CCC(C)c1ccc(NC(=O)Nc2ccc(N3CCN(C(=O)Nc4c(C)cccc4Cl)CC3)cc2)cc1 (stereo not shown)  melting point    259 to 261 °C
30  Cc1ccc(Cl)c(NC(=O)Nc2ccc(N3CCN(C(=O)Nc4c(C)cccc4Cl)CC3)cc2)c1  melting point  > 260 °C (dec.)
31  CCc1cccc(C)c1NC(=O)N1CCN(c2ccc(NC(=O)Nc3cc(C)ccc3OC)cc2)CC1  melting point    207 to 209 °C

Hello, the source for this data is patent US20070249620A1, in case you need it.
